# System: E. coli MG1655
# Type: cell-based, Escherichia coli
# Design: unit not given here
# test.parameters: Table 13, MHB medium
Response key: fulfilled means Minimal inhibitory concentrations (MIC90) MG1655 >= 2; not fulfilled means Minimal inhibitory concentrations (MIC90) MG1655 < 2.

[
  {
    "compound": "CO[C@H]1/C=C/O[C@@]2(C)Oc3c(C)c(O)c4c(O)c(cc(O)c4c3C2=O)NC(=O)/C(C)=C\\C=C\\[C@H](C)[C@H](O)[C@@H](C)[C@@H](O)[C@@H](C)[C@H](OC(C)=O)[C@@H]1C [Rifamycin]",
    "measured.on": "E. coli MG1655",
    "qualitative.label": "fulfilled"
  },
  {
    "compound": "[H]/N=C(/N)N[C@H]1[C@H](O)[C@@H](O)[C@H](O[C@@H]2O[C@@H](C)[C@](O)(C=O)[C@H]2O[C@@H]2O[C@@H](CO)[C@H](O)[C@@H](O)[C@@H]2NC)[C@@H](N/C(N)=N\\[H])[C@@H]1O [Streptomycin]",
    "measured.on": "E. coli MG1655",
    "qualitative.label": "fulfilled"
  },
  {
    "compound": "CCN[C@@H]1C[C@H](N)[C@@H](O[C@H]2OC(CN)=CC[C@H]2N)[C@H](O)[C@H]1O[C@H]1OC[C@](C)(O)[C@H](NC)[C@H]1O [Netilmycin]",
    "measured.on": "E. coli MG1655",
    "qualitative.label": "not fulfilled"
  },
  {
    "compound": "O=C(N[C@H](CO)[C@H](O)c1ccc([N+](=O)[O-])cc1)C(Cl)Cl [Chloramphenicol]",
    "measured.on": "E. coli MG1655",
    "qualitative.label": "fulfilled"
  }
]
